- System: CAKI-1 renal
- method: NCI tumour cell line growth inhibition, 48 h; in the data active = GI50 below about 0.43 µM; inactive = the rest
Please state which outcome applies, choosing from YES for active, NO for inactive

Data request: Identify the outcome logged in this assay for the compound shown: CC(c1cc(Cl)ccc1O)c1cc(Cl)ccc1O
Data returned: NO

Data request: Identify the outcome logged in this assay for the compound shown: O=C([O][Hg][c]1ccccc1)c1ccccc1
Data returned: NO

Data request: Identify the outcome logged in this assay for the compound shown: COc1ccc(/C=C/C(=O)c2c(O)ccc3c(C)c(C(=O)O)oc23)cc1
Data returned: NO

Data request: Identify the outcome logged in this assay for the compound shown: COC(=O)c1cc(NC(=O)c2cc(NC(=O)c3cc([N+](=O)[O-])n(C)c3)cn2C)cn1C
Data returned: NO

Data request: Identify the outcome logged in this assay for the compound shown: C[C@H](c1ccc(F)cc1CCCC(=O)O)N(c1cc(F)ccc1F)S(=O)(=O)c1ccc(Cl)cc1
Data returned: NO

Data request: Identify the outcome logged in this assay for the compound shown: OCc1ccc(-c2csc(-c3ccc(CO)o3)c2)o1
Data returned: NO

Data request: Identify the outcome logged in this assay for the compound shown: C/C(=N\NC(=S)N1CCN(c2ccccn2)CC1)c1ccccn1
Data returned: YES

Data request: Identify the outcome logged in this assay for the compound shown: Cc1ccc(-c2nc3nc(-c4ccc(F)cc4)nc(N4CCNCC4)c3o2)cc1
Data returned: NO

Data request: Identify the outcome logged in this assay for the compound shown: CN1CCN(Cc2ccc(NC(=O)c3cncc(C#Cc4c(N)ncc5ccc(C#N)cc45)c3)cc2C(F)(F)F)CC1
Data returned: NO

Data request: Identify the outcome logged in this assay for the compound shown: O=C(c1ccccc1)C(Cl)C(Cl)c1ccccc1 (stereo unspecified)
Data returned: NO

Data request: Identify the outcome logged in this assay for the compound shown: N#CC1C[C@@H]2CC3(CCC2CN1C(=O)c1ccccc1)OCCO3 (stereo partly specified)
Data returned: NO
